Listing: Lipid Concentration-induced 50% Peptide Binding, 3POPC/1POPG Vesicle of selected compounds
assay: Tryptophan fluorescent binding assay, 3POPC/1POPG vesicles; settings: 50 μM peptide, PBS pH 7.4, lipid per peptide
Quantity kind: Lipid Concentration-induced 50% Peptide Binding, 3POPC/1POPG Vesicle (L/P)

[[record]]
compound_smiles = "CC(C)C[C@H](NC(=O)CN)C(=O)N[C@@H](CC(C)C)C(=O)N[C@@H](CC(=O)O)C(=O)N[C@@H](CC(C)C)C(=O)N[C@@H](CC(C)C)C(=O)N[C@@H](Cc1c[nH]cn1)C(=O)N[C@@H](CC(C)C)C(=O)N[C@@H](CC(C)C)C(=O)N[C@@H](CC(C)C)C(=O)N[C@@H](CCC(=O)O)C(=O)N[C@@H](C)C(=O)N[C@@H](C)C(=O)NCC(=O)N[C@@H](Cc1c[nH]c2ccccc12)C(N)=O"
measured = 0.72

[[record]]
compound_smiles = "CC(C)C[C@H](NC(=O)CN)C(=O)N[C@@H](CC(C)C)C(=O)N[C@@H](CCCCN)C(=O)N[C@@H](CC(C)C)C(=O)N[C@@H](CC(C)C)C(=O)N[C@@H](Cc1c[nH]cn1)C(=O)N[C@@H](CC(C)C)C(=O)N[C@@H](CC(C)C)C(=O)N[C@@H](CC(C)C)C(=O)N[C@@H](Cc1c[nH]cn1)C(=O)N[C@@H](C)C(=O)N[C@@H](C)C(=O)NCC(=O)N[C@@H](Cc1c[nH]c2ccccc12)C(N)=O"
measured = 0.94

[[record]]
compound_smiles = "CC(C)C[C@H](NC(=O)CN)C(=O)N[C@@H](CC(C)C)C(=O)N[C@@H](CC(=O)O)C(=O)N[C@@H](CC(C)C)C(=O)N[C@@H](CC(C)C)C(=O)N[C@@H](Cc1c[nH]cn1)C(=O)N[C@@H](CC(C)C)C(=O)N[C@@H](CC(C)C)C(=O)N[C@@H](CC(C)C)C(=O)N[C@@H](Cc1c[nH]cn1)C(=O)N[C@@H](C)C(=O)N[C@@H](C)C(=O)NCC(=O)N[C@@H](Cc1c[nH]c2ccccc12)C(N)=O"
measured = 0.28

[[record]]
compound_smiles = "CC(C)C[C@H](NC(=O)CN)C(=O)N[C@@H](CC(C)C)C(=O)N[C@@H](CCCCN)C(=O)N[C@@H](CC(C)C)C(=O)N[C@@H](CC(C)C)C(=O)N[C@@H](CCC(=O)O)C(=O)N[C@@H](CC(C)C)C(=O)N[C@@H](CC(C)C)C(=O)N[C@@H](CC(C)C)C(=O)N[C@@H](Cc1c[nH]cn1)C(=O)N[C@@H](C)C(=O)N[C@@H](C)C(=O)NCC(=O)N[C@@H](Cc1c[nH]c2ccccc12)C(N)=O"
measured = 0.50

[[record]]
compound_smiles = "CC(C)C[C@H](NC(=O)CN)C(=O)N[C@@H](CC(C)C)C(=O)N[C@@H](CCCCN)C(=O)N[C@@H](CC(C)C)C(=O)N[C@@H](CC(C)C)C(=O)N[C@@H](CCC(=O)O)C(=O)N[C@@H](CC(C)C)C(=O)N[C@@H](CC(C)C)C(=O)N[C@@H](CC(C)C)C(=O)N[C@@H](CCCCN)C(=O)N[C@@H](C)C(=O)N[C@@H](C)C(=O)NCC(=O)N[C@@H](Cc1c[nH]c2ccccc12)C(N)=O"
measured = 0.50

[[record]]
compound_smiles = "CC(C)C[C@H](NC(=O)CN)C(=O)N[C@@H](CC(C)C)C(=O)N[C@@H](CCC(=O)O)C(=O)N[C@@H](CC(C)C)C(=O)N[C@@H](CC(C)C)C(=O)N[C@@H](CCC(=O)O)C(=O)N[C@@H](CC(C)C)C(=O)N[C@@H](CC(C)C)C(=O)N[C@@H](CC(C)C)C(=O)N[C@@H](CCC(=O)O)C(=O)N[C@@H](C)C(=O)N[C@@H](C)C(=O)NCC(=O)N[C@@H](Cc1c[nH]c2ccccc12)C(N)=O"
measured = 4.50

[[record]]
compound_smiles = "CC(C)C[C@H](NC(=O)CN)C(=O)N[C@@H](CC(C)C)C(=O)N[C@@H](CCCCN)C(=O)N[C@@H](CC(C)C)C(=O)N[C@@H](CC(C)C)C(=O)N[C@@H](CCCCN)C(=O)N[C@@H](CC(C)C)C(=O)N[C@@H](CC(C)C)C(=O)N[C@@H](CC(C)C)C(=O)N[C@@H](Cc1c[nH]cn1)C(=O)N[C@@H](C)C(=O)N[C@@H](C)C(=O)NCC(=O)N[C@@H](Cc1c[nH]c2ccccc12)C(N)=O"
measured = 0.48

[[record]]
compound_smiles = "CC(C)C[C@H](NC(=O)CN)C(=O)N[C@@H](CC(C)C)C(=O)N[C@@H](CCC(=O)O)C(=O)N[C@@H](CC(C)C)C(=O)N[C@@H](CC(C)C)C(=O)N[C@@H](Cc1c[nH]cn1)C(=O)N[C@@H](CC(C)C)C(=O)N[C@@H](CC(C)C)C(=O)N[C@@H](CC(C)C)C(=O)N[C@@H](CCCCN)C(=O)N[C@@H](C)C(=O)N[C@@H](C)C(=O)NCC(=O)N[C@@H](Cc1c[nH]c2ccccc12)C(N)=O"
measured = 0.42

[[record]]
compound_smiles = "CC(C)C[C@H](NC(=O)CN)C(=O)N[C@@H](CC(C)C)C(=O)N[C@@H](Cc1c[nH]cn1)C(=O)N[C@@H](CC(C)C)C(=O)N[C@@H](CC(C)C)C(=O)N[C@@H](CCC(=O)O)C(=O)N[C@@H](CC(C)C)C(=O)N[C@@H](CC(C)C)C(=O)N[C@@H](CC(C)C)C(=O)N[C@@H](CCC(=O)O)C(=O)N[C@@H](C)C(=O)N[C@@H](C)C(=O)NCC(=O)N[C@@H](Cc1c[nH]c2ccccc12)C(N)=O"
measured = 0.50

[[record]]
compound_smiles = "CC(C)C[C@H](NC(=O)CN)C(=O)N[C@@H](CC(C)C)C(=O)N[C@@H](CC(=O)O)C(=O)N[C@@H](CC(C)C)C(=O)N[C@@H](CC(C)C)C(=O)N[C@@H](CCC(=O)O)C(=O)N[C@@H](CC(C)C)C(=O)N[C@@H](CC(C)C)C(=O)N[C@@H](CC(C)C)C(=O)N[C@@H](CCCCN)C(=O)N[C@@H](C)C(=O)N[C@@H](C)C(=O)NCC(=O)N[C@@H](Cc1c[nH]c2ccccc12)C(N)=O"
measured = 1.67

